- measured-on: Activated human plasma kallikrein (Enzyme Research Laboratories, HPKa 1303) (human, UniProt P03952 20-638)
- Sequence (P03952 20-638 limits assumed): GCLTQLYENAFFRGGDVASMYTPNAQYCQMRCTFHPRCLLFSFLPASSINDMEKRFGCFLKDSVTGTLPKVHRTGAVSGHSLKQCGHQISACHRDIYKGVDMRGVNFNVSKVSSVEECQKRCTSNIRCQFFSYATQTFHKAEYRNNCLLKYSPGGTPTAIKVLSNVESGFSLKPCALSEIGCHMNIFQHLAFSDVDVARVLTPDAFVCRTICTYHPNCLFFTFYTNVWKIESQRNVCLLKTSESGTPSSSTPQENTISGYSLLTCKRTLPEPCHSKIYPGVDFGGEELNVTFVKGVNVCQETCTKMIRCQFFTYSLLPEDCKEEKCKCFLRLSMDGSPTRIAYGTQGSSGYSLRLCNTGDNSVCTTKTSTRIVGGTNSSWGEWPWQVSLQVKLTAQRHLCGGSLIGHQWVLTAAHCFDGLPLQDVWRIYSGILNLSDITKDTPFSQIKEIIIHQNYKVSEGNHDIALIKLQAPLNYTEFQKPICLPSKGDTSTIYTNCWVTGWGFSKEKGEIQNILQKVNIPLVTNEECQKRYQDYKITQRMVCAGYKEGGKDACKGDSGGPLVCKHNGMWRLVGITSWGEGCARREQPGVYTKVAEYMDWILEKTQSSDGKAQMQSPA
- experiment-description: cell-based or functional assay
Bridge positions count the residues as written; N and C are the ends. Ends that are not written are not given here. mXylyl = xylyl linker from dibromoxylene joining the two cysteines
Item-by-item account of Avg. IC50

- binder: "Ac-CNYWSPWT-NH2 [R2135]"
  censoring-sign: "="
  Avg. IC50 [nM]: 144
- binder: "Ac-YWSPWTECSA-NH2 [R2118]"
  censoring-sign: ">"
  Avg. IC50 [nM]: 100000
- binder: "MCNYWSPWTS-NH2 [R2124]"
  censoring-sign: "="
  Avg. IC50 [nM]: 54.6
- binder: "Ac-CNYWSPWAAC-NH2 (cysteine pairing not given here) [R2146]"
  censoring-sign: "="
  Avg. IC50 [nM]: 17.5
- binder: "MCNYWSPWTECSR-NH2 (linker 2-11 via mXylyl) [R2003]"
  censoring-sign: "="
  Avg. IC50 [nM]: 3.1
- binder: "Ac-PWTECSA-NH2 [R2121]"
  censoring-sign: "="
  Avg. IC50 [nM]: 10300
- binder: "MCNYWSP-NH2 [R2115]"
  censoring-sign: ">"
  Avg. IC50 [nM]: 17300
- binder: "MCNYWSPWTSEIC-NH2 (linker 2-13 via mXylyl) [R2109]"
  censoring-sign: "="
  Avg. IC50 [nM]: 9.2
- binder: "Ac-CNYWAPWTEC-NH2 (cysteine pairing not given here) [R2131]"
  censoring-sign: "="
  Avg. IC50 [nM]: 127
- binder: "Ac-ANYWSPWTAA-NH2 [R2145]"
  censoring-sign: "="
  Avg. IC50 [nM]: 58.8
- binder: "MCNYWSPWTECS-NH2 (cysteine pairing not given here) [R2110]"
  censoring-sign: "="
  Avg. IC50 [nM]: 3.5
- binder: "MCNYWSPWTEC-NH2 (cysteine pairing not given here) [R2111]"
  censoring-sign: "="
  Avg. IC50 [nM]: 3.8
- binder: "Ac-CNAWSPWTEC-NH2 (cysteine pairing not given here) [R2133]"
  censoring-sign: "="
  Avg. IC50 [nM]: 39.1
- binder: "Ac-CNYWSPATEC-NH2 (cysteine pairing not given here) [R2130]"
  censoring-sign: "="
  Avg. IC50 [nM]: 5300
- binder: "MCNYWSPW-NH2 [R2114]"
  censoring-sign: "="
  Avg. IC50 [nM]: 349
- binder: "Ac-CNYWSPWTC-NH2 (cysteine pairing not given here) [R2134]"
  censoring-sign: "="
  Avg. IC50 [nM]: 86.7
- binder: "MCNYWSPWTE-NH2 [R2112]"
  censoring-sign: "="
  Avg. IC50 [nM]: 2.4
- binder: "MCNYWSPWT-NH2 [R2113]"
  censoring-sign: "="
  Avg. IC50 [nM]: 88.8
- binder: "Ac-CNYWSAWTEC-NH2 (cysteine pairing not given here) [R2137]"
  censoring-sign: "="
  Avg. IC50 [nM]: 57.2
- binder: "Ac-SPWTECSA-NH2 [R2120]"
  censoring-sign: ">"
  Avg. IC50 [nM]: 100000
- binder: "Ac-NYWSPWT-NH2 [R2106]"
  censoring-sign: "="
  Avg. IC50 [nM]: 374
- binder: "Ac-WSPWTECSA-NH2 [R2119]"
  censoring-sign: ">"
  Avg. IC50 [nM]: 100000
- binder: "MCNYWSPWTSEIC-NH2 (cysteine pairing not given here) [R2105]"
  censoring-sign: "="
  Avg. IC50 [nM]: 4.4
- binder: "Ac-CNYASPWTEC-NH2 (cysteine pairing not given here) [R2132]"
  censoring-sign: "="
  Avg. IC50 [nM]: 4110
- binder: "MCNYWSPWTSEI-NH2 [R2122]"
  censoring-sign: "="
  Avg. IC50 [nM]: 30.4
- binder: "Ac-CNYWSPWTAC-NH2 (cysteine pairing not given here) [R2128]"
  censoring-sign: "="
  Avg. IC50 [nM]: 2.5

These data points were gathered from patent US20150166606A1.
